# test_name: Half life in rat
# Type: ADME, organism-based
# particulars: in vivo
Item-by-item account of half-life
assay_endpoint: half-life (min)

compound=Cc1ccc(C(=O)O)c(Oc2nc(Oc3cccc(-c4cccc(CN)c4)c3)c(F)cc2F)c1 assay_endpoint=half-life units_of_measure=min result=30
compound=CN(C)c1ccc(C(=O)O)c(Oc2nc(Oc3cccc(-c4cccc(CN)c4)c3)c(F)cc2F)c1 assay_endpoint=half-life units_of_measure=min result=30
compound="CN(C)c1ccc(C(=O)O)c(Oc2nc(Oc3cccc(-c4cccc(CN)c4)c3)c(F)c(N3CCC(N(C)C)C3)c2F)c1 (centres undefined)" assay_endpoint=half-life units_of_measure=min result=276
compound=Cc1ccc(C(=O)O)c(Oc2nc(Oc3cc(N)cc(-c4cccc(CN)c4)c3)c(F)cc2F)c1 assay_endpoint=half-life units_of_measure=min result=15.6

Values were extracted from ChEMBL document CHEMBL1156011.
